Values from PubChem BioAssay (NCI)

Reported TGI values for the following molecules.
- System: SF-268 CNS
- test_method_notes: NCI tumour cell line growth inhibition, 48 h

Find the measured TGI of CN1CCCCC(C#N)(c2ccccc2)CC1 (stereo unspecified) and report it.
> 100 µM

Read the entry `COc1cc(Nc2ncc(F)c(Nc3ccc4c(n3)NC(=O)C(C)(C)O4)n2)cc(OC)c1OC` and write its reported TGI.
> 10 µM

Indicate its recorded TGI; the molecule in question is `O=C(O)CNc1ccc(C(=O)O)cc1`
> 100 µM

Answer with the recorded TGI of Cc1cc(C)c2c(c1)CC1(Cc3c(C)ccc(C)c3C1=O)C2=O (stereo unspecified) only.
> 100 µM

Fill in TGI for record `CS(=O)(=O)c1c(N)c2nc(Cl)cn2c2nc3ccccc3nc12`
> 100 µM

Recall and state the measured TGI for Cc1ccc(C2NC(=O)c3ccccc3N2)s1 (stereo unspecified) .
> 100 µM

###

Parameter TGI: see the listing below.
- Test system: SF-295 CNS
- test_method_notes: NCI tumour cell line growth inhibition, 48 h

Some solved cases for reference:
Specify reported TGI for the molecule shown: `CC(C)(C)OC(=O)N(O)CCCn1cnc2c(N)ncnc21`
> 100 µM

Identify measured TGI associated with `O=[N+]([O-])/C=C/c1cc2ccccc2[nH]1`
43.9 µM

Provide measured TGI value, entry: `O=[N+]([O-])c1ccc(/C=N/Nc2nnc3c4ccccc4c4ncccc4c3n2)o1`
> 10 µM

Provide one value: measured TGI of C=C(C)C1CC/C(C)=C/CC[C@]2(C)O[C@H]2CC/C(COC(C)=O)=C\[C@@H]1O (stereo partly specified)
> 50 µM

Respond only with TGI recorded for CC1=CCC2C3(C)CCC2(C(C)C)C1C3 (stereo unspecified) (tested in a mixture with another compound)
40.3 µM

Continuing:
Identify the reported TGI for the following entry. `[N-]=[N+]=Nc1c(C=O)c(=O)n(-c2ccccc2)c2ccccc12`
> 100 µM

Give me measured TGI, please, for this molecule: `COc1cc(C(=O)O[C@@H]2[C@@H](OC(=O)c3cc(OC)c(OC)c(OC)c3)[C@@H](OC)O[C@@H]3CO[C@@H](c4ccccc4)O[C@@H]23)cc(OC)c1OC`
> 100 µM

Please indicate TGI recorded for CC(=O)OC1CC2Oc3ccc(C)cc3C(C)(O2)C1=O (stereo unspecified)
> 100 µM

Give the reported value of TGI for this record: `COc1cc(C)cc2c1c(=O)c1ccccc1n2C`
45.3 µM

Dear colleague, please send me the reported TGI for `CN(C)CCNC(=O)c1cccc2c(Nc3ccc(S(N)(=O)=O)cc3)c3ccccc3nc12` when you can.
8.02 µM

Give me measured TGI, please, for this molecule: `Oc1ccccc1C=Nc1ccc(-c2nc3ccccc3[nH]2)cc1`
> 100 µM

###

- Test system: HT29 colon
- test_method_notes: NCI tumour cell line growth inhibition, 48 h
Recorded TGI for the following compounds

Please give the documented TGI of `COC(=O)NC1(NC(=O)OC)NC(=O)c2cc(OC)c(OC)c(OC)c2N1`
> 100 µM

Retrieve TGI measured for `Cc1ccc(N=N/C(=N/NC(=O)c2cc(Cl)ccc2C(=O)c2ccccc2)c2ccc(N(CCC#N)CCC#N)cc2C)cc1` and print it.
39.9 µM

Indicate its recorded TGI; the compound in question is COc1ccc(C2Oc3cc(OC)c(O)c(C)c3[C@H]2C)cc1 (some centres undefined)
> 100 µM

Would you kindly look at the next entry?
Look up and state reported TGI for `O=C(O)CS`
> 100 µM

###

# TGI per record follows
- Test system: CCRF-CEM leukemia
- test_method_notes: NCI tumour cell line growth inhibition, 48 h

# count of solved cases: 3
Supply measured TGI of `CN(C)CCSc1cccc(-c2cc(-c3cccc(SCCN(C)C)c3)nc(SCCN(C)C)n2)c1` in your reply.
4.8 µM

Item CC(=O)N1c2ccccc2NC2=C(C(=O)N(Cc3ccccc3)C2(C)C)C1c1ccco1 (stereo not given) : provide TGI
> 25 µM

Return TGI (reported value) for this compound: `Cc1cc(Nc2c3ccccc3nc3ccccc23)ccc1NS(C)(=O)=O`
20.3 µM

---
Entry `O=C(Cc1csc(-c2nc(CC(=O)NNc3ccccc3)cs2)n1)NNc1ccccc1` needs its TGI filled in; supply it.
> 100 µM

Identify TGI associated with the compound O=C(O)/C(Cl)=C(\Cl)C(=O)NC1C2CC3CC(C2)CC1C3 (stereo not given)
> 100 µM

Provide TGI value for the following compound: `S=C(Nc1ccc(Cl)cc1)Nc1ccc(-c2nc3ccccc3o2)cc1`
19.3 µM

Could you please provide reported TGI for COc1cc(C2SC(N)=Nc3c2c(C)nn3C(=O)c2ccccc2O)ccc1O (stereo not given) ? Thanks!
> 10 µM

Name the recorded TGI of the item `Cc1cc(-c2nc3ccccc3s2)ccc1N` in your answer.
> 100 µM

Provide only the value of recorded TGI for `Cc1nc(-c2ccccc2)cc2c1c(=O)oc1ccccc12`
> 100 µM

Answer with the recorded TGI for the compound listed here: `CCOC(=O)c1nc2ccccc2nc1Nc1ccc(OC)c(OC)c1`
> 100 µM

Given `Cc1ccc(N=N/C(=N/NC(=O)c2cc(Cl)ccc2C(=O)c2ccccc2)c2ccc(N(CCC#N)CCC#N)cc2C)cc1` , respond with its TGI.
13.1 µM

Item O/N=C1/C(=C/c2ccc(Oc3ccccc3)cc2)CCCC1C(NO)c1ccc(Oc2ccccc2)cc1 (stereo not given) : provide TGI
61.2 µM

Provide one value: measured TGI of `O=C(Cc1nc2ccccc2s1)C(=O)Nc1cccc(Cl)c1`
> 100 µM

Identify measured TGI associated with `O=C(Nc1c(C(F)(F)F)cc(-c2ccccc2)[nH]c1=O)N1CCOCC1`
> 100 µM

###

Entries and their TGI
- System: KM20L2 colon
- test_method_notes: NCI tumour cell line growth inhibition, 48 h

Specify TGI for `CS(=O)(=O)c1c(N)c2nc(Cl)cn2c2nc3ccccc3nc12` and stop.
> 100 µM

Retrieve TGI measured for `CCCCCCCC/C=C\CCCCCCCC(=O)O` and print it.
> 500 µM

Output TGI of c1ccc(C2=NOC3(c4ccccc4)SC4CCCCC4CN23)cc1 (stereo unspecified)
> 100 µM

Please list TGI recorded for the compound `CN(CCO)c1nc(N)cc(=O)[nH]1`
> 100 µM

For the compound C#CCN(N=O)C(=O)NC(CCCNC(=O)OCc1ccccc1)C(=O)OCc1ccccc1 (stereo unspecified) , give its measured TGI value.
> 100 µM

New cases:
Give a short answer stating reported TGI for `COc1cc(O)c2c(c1)C(=O)C=C(Cl)C2=O` .
> 100 µM

###

Catalogue of TGI values
- Tested on: MDA-MB-435
- test_method_notes: NCI tumour cell line growth inhibition, 48 h

// below: answered compounds
Please supply the value of reported TGI for the item `CC1(C)CC23CC(C)(C)c4cccc(c42)OCc2ccc4ccc5ccc(nc5c4n2)COc2cccc1c23`
> 50 µM

Please list TGI recorded for the compound COc1cc(/C=C2/SC(c3ccccc3)N(c3ccccc3)C2=O)cc(OC)c1OC (stereo not drawn)
> 100 µM

// next entry
Could you please provide reported TGI for `O=C1NC(N2CCCCC2)=N/C1=C\c1cccs1` ? Thanks!
> 100 µM

###

Measured TGI of individual entries
- System: CAKI-1 renal
- test_method_notes: NCI tumour cell line growth inhibition, 48 h

// worked examples, TGI included
Please report the measured TGI for Cc1cc(C)c2c(c1)CC1(Cc3c(C)ccc(C)c3C1=O)C2=O (stereo not drawn) tested on CAKI-1 renal.
> 100 µM

Write down the reported TGI (system: CAKI-1 renal) of `O=[N+]([O-])/C=C/c1cc2ccccc2[nH]1`
33.7 µM

Further cases:
Specify TGI for `COC(=O)Nc1nc2ccc(C(=O)c3ccc(N(C)C4COC4)cc3)cc2[nH]1` , system CAKI-1 renal.
> 100 µM

Tell me its TGI on CAKI-1 renal: `O=C(Nc1cc2c(=O)oc3ccccc3c2oc1=O)c1cccnc1`
> 100 µM

Enter recorded TGI with CAKI-1 renal for `N#CC(C#N)N=Nc1ccc(Br)cc1` here.
12.1 µM

Return reported TGI for target or system CAKI-1 renal, item `Cc1c2c(n(CCc3ccccc3)c1C)N(C)N=C(C#N)S2(=O)=O` .
> 100 µM

Find TGI for `O=C(Cc1nc2ccccc2s1)C(=O)Nc1cccc(Cl)c1` on CAKI-1 renal and write it down.
> 100 µM

Provide TGI, tested on CAKI-1 renal, for `CC1(C)OB(O)OC1(C)C` .
> 100 µM

Return reported TGI for target or system CAKI-1 renal, item `COc1cc(Nc2ncc(F)c(Nc3ccc4c(n3)NC(=O)C(C)(C)O4)n2)cc(OC)c1OC` .
> 10 µM

Report its TGI with CAKI-1 renal as the test system: COc1cc(C2SC(N)=Nc3c2c(C)nn3C(=O)c2ccccc2O)ccc1O (stereo not drawn)
> 10 µM

Look up and report measured TGI (CAKI-1 renal) for the following molecule: `[N-]=[N+]=Nc1c(C=O)c(=O)n(-c2ccccc2)c2ccccc12`
27.7 µM

State TGI on CAKI-1 renal. Entry: `Cc1nc(-c2ccccc2)cc2c1c(=O)oc1ccccc12`
> 100 µM

Please report the measured TGI for `CCOC(=O)Cc1csc2[n+]1C(=O)/C(=C\c1cccc(Cl)c1Cl)S2` tested on CAKI-1 renal.
48.7 µM
